- test.system: Androgen receptor (Homo sapiens) (UniProt P10275)
- Sequence (P10275 whole entry, looked up): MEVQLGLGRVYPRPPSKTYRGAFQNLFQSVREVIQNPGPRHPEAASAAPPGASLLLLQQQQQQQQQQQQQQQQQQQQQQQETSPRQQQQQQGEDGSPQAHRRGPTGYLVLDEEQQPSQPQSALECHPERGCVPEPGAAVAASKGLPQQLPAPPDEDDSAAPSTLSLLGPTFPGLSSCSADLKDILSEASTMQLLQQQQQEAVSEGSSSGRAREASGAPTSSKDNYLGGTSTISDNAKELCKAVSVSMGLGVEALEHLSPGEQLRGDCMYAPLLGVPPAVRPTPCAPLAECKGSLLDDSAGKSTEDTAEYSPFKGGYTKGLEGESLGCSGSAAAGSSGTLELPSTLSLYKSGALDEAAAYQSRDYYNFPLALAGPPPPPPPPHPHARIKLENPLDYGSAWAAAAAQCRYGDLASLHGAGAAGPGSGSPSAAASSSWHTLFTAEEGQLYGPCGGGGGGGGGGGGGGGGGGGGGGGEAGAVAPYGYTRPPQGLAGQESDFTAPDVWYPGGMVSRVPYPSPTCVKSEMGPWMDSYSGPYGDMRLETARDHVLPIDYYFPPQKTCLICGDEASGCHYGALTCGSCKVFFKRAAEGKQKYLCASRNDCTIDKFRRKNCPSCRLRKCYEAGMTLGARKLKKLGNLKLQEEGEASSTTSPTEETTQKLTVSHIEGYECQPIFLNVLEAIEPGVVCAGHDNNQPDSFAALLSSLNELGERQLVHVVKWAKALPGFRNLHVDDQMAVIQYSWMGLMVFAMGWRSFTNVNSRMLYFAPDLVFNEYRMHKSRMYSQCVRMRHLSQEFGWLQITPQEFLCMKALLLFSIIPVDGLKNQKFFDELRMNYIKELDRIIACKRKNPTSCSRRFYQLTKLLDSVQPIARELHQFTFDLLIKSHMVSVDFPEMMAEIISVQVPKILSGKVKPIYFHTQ
- test.method.notes: qHTS assay to identify small molecule agonists of the androgen receptor (AR) signaling pathway using the MDA cell line (AID 743040; note: nearly all actives have a fitted effect of over 20% in size)
- conditions: MDA-kb2 AR-luc cells, MMTV luciferase, 16 h; series mostly up to 70.3 µM
Active and inactive are the calls of the source. Calls come from the whole dose curve; as a rule, active = well fitted activation curve with a large enough effect in the repeat runs; inconclusive = weak or mixed curves; inactive = flat fitted curve, though single readings scatter.
Assign a class; possible classes are class 1 = active, class 0 = inactive

Worked examples follow.
Cc1ccsc1C(=CCCN1CCC[C@@H](C(=O)O)C1)c1sccc1C = class 0
Cc1c(C(=O)NCCO)[n+](=O)c2ccccc2n1[O-] = class 0
Nc1cccc(S(=O)(=O)O)c1 = class 0
CN(C)Cc1ccccc1 = class 0
O=C1CCN(c2ccccc2)N1 = class 0
CC(C)c1ccccc1 = class 0
CC(C)CCCCCCc1ccc(OCCOCCO)cc1 = class 0
CCCCCOc1ccc(C2SC(=O)NC2=O)cc1OCC (stereo not drawn) = class 0
CN1CCN(C2=Nc3cc(F)ccc3Cc3ccccc32)CC1 = class 0
CC1=C2[C@H](/C=C(\C)C(=O)O)CC[C@@H](C)[C@H]2CC1 = class 0

So what was the verdict on `CCCCc1ccc2nc(NC(=O)OC)[nH]c2c1` in this test?
class 1

Follow-up item: `NCCCN1CCN(CCCN)CC1`
class 0

Follow-up item: `Cn1cnc2c(F)c(Nc3ccc(Br)cc3Cl)c(C(=O)NOCCO)cc21`
class 0

----------
- test.method.notes: qHTS assay for small molecule agonists of the antioxidant response element (ARE) signaling pathway - cell viability counter screen (AID 743203); note: nearly all actives have a fitted effect of over 55% in size
- conditions: ARE-bla HepG2 viability, CellTiter-Glo luminescence, 16 h; series mostly up to 73.3 µM
Records with an inconclusive call do not appear. Calls of active or inactive are those of the source. The call rests on the fitted dose curve.
Assign a class; possible classes are active, inactive

Worked examples follow.
CCOC(=O)c1cc(=O)c2c(OCC(COc3cccc4oc(C(=O)OCC)cc(=O)c34)OC(=O)[C@@H](N)CCCCN)cccc2o1 = inactive
O=C(O)[C@@H](O)[C@H](O)[C@H](O)[C@@H](O)C(=O)O = inactive
CCC1(C)NC(=O)NC1=O (stereo not drawn) = inactive

So what was the verdict on `CC(C)(CO)[C@@H](O)C(=O)NCCC(=O)O` in this test?
inactive

Follow-up item: `Cc1cc2c(s1)Nc1ccccc1N=C2N1CCN(C)CC1`
inactive

Follow-up item: `COc1cc(Cl)ccc1Cl`
inactive

Follow-up item: `C[C@@H](N)C(=O)O`
inactive

Follow-up item: `OCCN1CCN(CCO)CC1`
inactive

Follow-up item: `O=C(Cl)c1cccc([N+](=O)[O-])c1`
inactive

Follow-up item: CCCCC(CC)COC(=O)COc1cc(Cl)c(Cl)cc1Cl (stereo not drawn)
inactive

Follow-up item: `CCCCCCC`
inactive

Follow-up item: `CCC(=O)Nc1ccc(O)cc1`
inactive

Follow-up item: `O=c1[nH]cnc2c1ncn2[C@@H]1O[C@H](CO)[C@@H](O)[C@H]1O`
inactive

Follow-up item: `NCCC(O)(P(=O)(O)O)P(=O)(O)O`
inactive

Follow-up item: CCCC1CCC(=O)O1 (stereo not drawn)
inactive

Follow-up item: C=CC(C)(O)CC/C=C(\C)CCC=C(C)C (stereo not drawn)
inactive

Follow-up item: CC(C)=CCCC(C)CCOC=O (stereo not drawn)
active

Follow-up item: `Oc1ccccc1C=NCc1ccccc1`
inactive

Follow-up item: `CC(C)c1ccccc1`
inactive

Follow-up item: `CCCCc1ccc2nc(NC(=O)OC)[nH]c2c1`
inactive

Follow-up item: `NC/C=C/C(=O)O`
inactive

----------
- test.method.notes: qHTS assay to identify small molecule antagonists of the sonic hedgehog signaling (Shh) pathway (AID 1259369); note: nearly all actives have a fitted effect of over 45% in size
- conditions: NIH/3T3 Gli1-Luc reporter, Shh antagonist, luminescence 24 h; series mostly up to 92.4 µM
- Source text: U.S. Tox21 Program National Center for Advancing Translational Sciences [NCATS] NIH Chemical Genomics Center [NCGC] U.S. Environmental Protection Agency [EPA] National Institutes of Environmental Health Sciences [NIEHS] National Toxicology Program [NTP] U.S. Food and Drug Administration [FDA] Tox21 Assay Overview: The sonic hedgehog (Shh) pathway is essential for normal embryonic development. Dysregulation of the Shh pathway can cause severe developmental defects in organs. […]
Records with an inconclusive call do not appear. Activity calls are given as the source filed them. The call rests on the fitted dose curve.
Assign a class; possible classes are 1 (active), 0 (inactive)

Worked examples follow.
O=C(O[C@@H](C(=O)O)[C@@H](OC(=O)c1ccccc1)C(=O)O)c1ccccc1 = 0
O=c1[nH]c(=O)n([C@H]2C[C@H](O)[C@@H](CO)O2)cc1C(F)(F)F = 0
CC(C)C[C@H](NC(=O)OCC1c2ccccc2-c2ccccc21)C(=O)O = 0
CC(C)CC(=O)OCc1ccccc1 = 0
Oc1ccccc1C=NCc1ccccc1 = 0

So what was the verdict on `CCOC(=O)CS` in this test?
1

----------
- test.method.notes: qHTS assay to identify small molecule antagonists of the estrogen related receptor (ERR) signaling pathway from Tox21 library (AID 1224848); note: % is set by controls: 0 for no effect and ±100 for the full control effect; nearly all actives have a fitted effect of over 50% in size
- conditions: ERR reporter cell line, luciferase antagonist mode, 18 h; series mostly up to 92.4 µM
Inconclusive results are not listed. Active and inactive are the calls of the source. The call rests on the fitted dose curve; in most records, active means well fitted inhibition curve with a large enough effect in the repeat runs; inconclusive means weak or mixed curves; inactive means no such curve, though single readings can be large or run the other way.
reported.property: activity, negative = inhibition

O=C(O)CN(CCN(CC(=O)O)CC(=O)O)CCN(CC(=O)O)CC(=O)O = 11.2% [at 19 µM] (inactive)
CCc1cc2cc(OC)c(OC)cc2c(Cc2ccccc2)n1 = inactive
CCC(=O)O[C@]1(C(=O)SCF)[C@H](C)C[C@H]2[C@@H]3C[C@H](F)C4=CC(=O)C=C[C@]4(C)[C@@]3(F)[C@@H](O)C[C@@]21C = inactive
CCCc1c2oc(C(=O)O)cc(=O)c2cc2c(=O)cc(C(=O)O)n(CC)c12 = inactive
CCCN(CCC)C(=O)C(CCC(=O)O)NC(=O)c1ccccc1 (stereo not given) = inactive
CC(C)C(=O)OC/C=C/c1ccccc1 = inactive
CCCCCCCCOC(=O)CCCCCCCCC(=O)OCCCCCCCC = inactive
COC(=O)c1ccc(OC)cc1 = inactive

Record request: activity, negative = inhibition value, item `CCCCCCCCCCCCCCCCOP(=O)([O-])OCC[N+](C)(C)C`
inactive

Follow-up item: `C[C@@H]1CN(c2c(F)c(F)c3c(=O)c(C(=O)O)cn(C4CC4)c3c2F)C[C@H](C)N1`
2.94% [at 19 µM] (inactive)

----------
- test.method.notes: qHTS assay to identify small molecule antagonists of the thyroid receptor (TR) signaling pathway (AID 743065); note: nearly all actives have a fitted effect of over 55% in size
- conditions: GH3.TRE-Luc, T3-stimulated luciferase inhibition, 23.5 h; series mostly up to 70.3 µM
Records with an inconclusive call do not appear. The source made the active and inactive calls. Calls follow the shape of the dose curve; as a rule, active = well fitted inhibition curve with a large enough effect in the repeat runs; inconclusive = weak or mixed curves; inactive = no such curve, though single readings can be large or run the other way.
Assign a class; possible classes are 1.0 (active), 0.0 (inactive)

Cc1c(-c2ccccc2)oc2c(C(=O)OCCN3CCCCC3)cccc2c1=O = 0.0
NC/C=C/C(=O)O = 0.0
CN1CCN(C2=Nc3cc(F)ccc3Cc3ccccc32)CC1 = 1.0
FC(F)(F)c1ccccc1 = 0.0

So what was the verdict on `Cc1ccc(C(C)C)cc1O` in this test?
0.0

----------
- test.system: Nuclear receptor subfamily 1 group I member 2 (Homo sapiens) (UniProt O75469)
- Sequence (O75469 whole entry, looked up): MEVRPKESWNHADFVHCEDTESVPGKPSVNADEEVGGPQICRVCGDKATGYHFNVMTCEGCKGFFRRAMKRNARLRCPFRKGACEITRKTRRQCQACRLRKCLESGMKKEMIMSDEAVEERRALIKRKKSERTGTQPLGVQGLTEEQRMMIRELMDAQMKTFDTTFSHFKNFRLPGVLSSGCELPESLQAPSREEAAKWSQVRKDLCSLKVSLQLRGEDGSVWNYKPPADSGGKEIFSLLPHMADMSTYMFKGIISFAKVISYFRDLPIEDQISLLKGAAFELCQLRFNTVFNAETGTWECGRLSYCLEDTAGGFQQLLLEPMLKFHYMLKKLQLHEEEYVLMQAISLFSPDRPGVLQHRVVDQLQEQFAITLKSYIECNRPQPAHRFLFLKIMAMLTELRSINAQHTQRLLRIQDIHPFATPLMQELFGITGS
- test.method.notes: Human pregnane X receptor (PXR) small molecule agonists, qHTS assay (AID 1346982); note: % is set by controls: 0 for no effect and ±100 for the full control effect; nearly all actives have a fitted effect of over 35% in size
- conditions: PXR-Luc HepG2, CYP3A4 luciferase reporter, 24 h; series mostly up to 92.4 µM
Results filed as inconclusive are left out. Activity calls are given as the source filed them. The call rests on the fitted dose curve; in most records, active means well fitted activation curve with a large enough effect in the repeat runs; inconclusive means weak or mixed curves; inactive means no such curve, though single readings can be large or run the other way.
reported.property: activation

These solved cases illustrate the format of a correct answer.
C[C@@H]1CN(c2c(F)c(N)c3c(=O)c(C(=O)O)cn(C4CC4)c3c2F)C[C@H](C)N1 = -7.57% [at 19 µM] (inactive)
O=C(O)CN(CCN(CC(=O)O)CC(=O)O)CCN(CC(=O)O)CC(=O)O = 8.36% [at 19 µM] (inactive)

Record request: activation value, item `O=C(O)c1ccccc1Nc1cc(Cl)ccc1C(=O)O`
5.75% [at 19 µM] (inactive)

Follow-up item: `CN(C)C(=O)NC1(c2ccccc2)CCN(CCC[C@]2(c3ccc(Cl)c(Cl)c3)CCCN(C(=O)c3ccccc3)C2)CC1`
-0.297% [at 19 µM] (inactive)

----------
- test.method.notes: qHTS RealTime-Glo MT Cell Viability Assay in HEK293 cells - 32 hour (AID 1224868); note: nearly all actives have a fitted effect of over 50% in size
- conditions: RealTime-Glo luminescence; series mostly up to 76.8 µM
Inconclusive results are not listed. The source made the active and inactive calls. Calls follow the shape of the dose curve; as a rule, active = well fitted cell-killing curve with a large enough effect in the repeat runs; inconclusive = weak or mixed curves, or effect the other way; inactive = flat fitted curve, though single readings scatter.
Assign a class; possible classes are active, inactive

Worked examples follow.
CC(C)=CCC[C@](C)(O)[C@@H]1CC=C(C)CC1 = inactive
COc1ccc2nc(NC(=O)Nc3ccccc3)sc2c1 = active
CC(C)Nc1nc(N)nc(Cl)n1 = inactive

So what was the verdict on `O=[N+]([O-])c1nccn1CO[C@@H](CO)[C@H](O)CO` in this test?
inactive

Follow-up item: `CCCCCCC`
inactive

Follow-up item: `C/C(=N\O)[C@@H](C)NCC(C)(C)CN[C@H](C)/C(C)=N/O`
inactive

Follow-up item: `O=C1CCN(c2ccccc2)N1`
inactive

Follow-up item: CCCNC(C)C(=O)Nc1c(C)csc1C(=O)OC (stereo unspecified)
inactive
